- assay.name: Antiproliferative activity against human ALL5 cells assessed as reduction in cell viability incubated for 120 hrs by MTT assay
- Assay type: functional, cell-based
- test.context: ALL5, 120 h
Each item that follows carries a reported IC50.
The response must be a number in nM with no trailing unit.

{"columns": ["smi", "IC50 [nM]"],
 "data": [
  ["COc1c(Br)c2c(c(OC)c1OC)-c1ccc(SC)c(=O)cc1[C@@H](NC(=O)CCCCl)CC2", 14],
  ["COc1c(Br)c2c(c(OC)c1OC)-c1ccc(SC)c(=O)cc1[C@@H](NC(C)=O)CC2", 5.4],
  ["COc1cc2c(c(OC)c1OC)-c1ccc(OC)c(=O)cc1[C@@H](NC(C)=O)CC2", 8.6]
]}

Need IC50 of COc1c(Br)c2c(c(OC)c1OC)-c1ccc(SC)c(=O)cc1[C@@H](NC(=O)c1ccccc1)CC2 , thanks.
5.8

* * *

- assay.name: Antiproliferative activity against human ALL5 cells assessed as reduction in cell viability incubated for 120 hrs by MTT assay
- Type: functional, cell-based
- test.context: ALL5, 120 h
measured.quantity: IC50 (nM)
The response must be a number in nM with no trailing unit.

Need IC50 of COc1c(Br)c2c(c(OC)c1OC)-c1ccc(OC)c(=O)cc1[C@@H](NC(C)=O)CC2 , thanks.
5.9

Need IC50 of COc1c(Br)c2c(c(OC)c1OC)-c1ccc(SC)c(=O)cc1[C@@H](NC(=O)C(C)C)CC2 , thanks.
8.6

Need IC50 of COc1cccc2c1C(=O)c1c(O)c3c(c(O)c1C2=O)C[C@@](O)(C(=O)CO)C[C@@H]3O[C@H]1C[C@H](N)[C@H](O)[C@H](C)O1 , thanks.
39.1

Need IC50 of COCC(=O)N[C@H]1CCc2c(Br)c(OC)c(OC)c(OC)c2-c2ccc(SC)c(=O)cc21 , thanks.
5.3

Need IC50 of CCC(=O)N[C@H]1CCc2c(Br)c(OC)c(OC)c(OC)c2-c2ccc(SC)c(=O)cc21 , thanks.
8.5

Need IC50 of CCN(CC)C(=O)N[C@H]1CCc2c(Br)c(OC)c(OC)c(OC)c2-c2ccc(SC)c(=O)cc21 , thanks.
55.3

Need IC50 of CCCCCCCCCC(=O)N[C@H]1CCc2c(Br)c(OC)c(OC)c(OC)c2-c2ccc(SC)c(=O)cc21 , thanks.
196

Need IC50 of COc1c(Br)c2c(c(OC)c1OC)-c1ccc(SC)c(=O)cc1[C@@H](N)CC2 , thanks.
91.4

* * *

- assay.name: Cell cycle arrest in human ALL5 cells assessed as accumulation in S phase at 5 times of antiproliferative IC50 incubated for 72 hrs by propidium iodide based flow cytometry (reference value: 13.5 %)
- Type: functional
# note: exactly 20% is not below, so it is class 0; use class 1 for Activity strictly under it

Regarding COc1cc2c(c(OC)c1OC)-c1ccc(OC)c(=O)cc1[C@@H](NC(C)=O)CC2 [COLCHICINE] , kindly confirm whether its Activity is beneath 20%.
class 1

Regarding COc1c(Br)c2c(c(OC)c1OC)-c1ccc(OC)c(=O)cc1[C@@H](NC(C)=O)CC2 , kindly confirm whether its Activity is beneath 20%.
class 0

Regarding COc1cccc2c1C(=O)c1c(O)c3c(c(O)c1C2=O)C[C@@](O)(C(=O)CO)C[C@@H]3O[C@H]1C[C@H](N)[C@H](O)[C@H](C)O1 [DOXORUBICIN] , kindly confirm whether its Activity is beneath 20%.
class 1

Regarding COCC(=O)N[C@H]1CCc2c(Br)c(OC)c(OC)c(OC)c2-c2ccc(SC)c(=O)cc21 , kindly confirm whether its Activity is beneath 20%.
class 0

Regarding COc1c(Br)c2c(c(OC)c1OC)-c1ccc(SC)c(=O)cc1[C@@H](NC(C)=O)CC2 , kindly confirm whether its Activity is beneath 20%.
class 0

Regarding COc1c(Br)c2c(c(OC)c1OC)-c1ccc(SC)c(=O)cc1[C@@H](NC(=O)C(C)C)CC2 , kindly confirm whether its Activity is beneath 20%.
class 0
